System: human circulating polymorphonucleates (PMNs), C5a induced chemotaxis
Assay: C5a-induced chemotaxis of human PMNs (microchamber assay)
Format: cell-based
Settings: 1 h, compound 10^-5 M (so in the source), C5a 1 ng/mL
Counter-ions that a name gives are not always drawn.
readout.label: inhibition at 10 µM
Please answer using the number first and the unit second.

`CC(C)Cc1ccc([C@@H](C)C(=O)NCCN(C)C)cc1.Cl` has a reported inhibition at 10 µM of 62%

CC(C)Cc1ccc([C@@H](C)C(=O)NCCCN2CCCCC2)cc1.Cl [hydrochloride] has a reported inhibition at 10 µM of 76%

`CC(C)Cc1ccc([C@@H](C)C(=O)NCCCN2CCOCC2)cc1.Cl` has a reported inhibition at 10 µM of 24%

`C[C@@H](C(=O)NCCCN(C)C)c1cccc(C(=O)c2ccccc2)c1` has a reported inhibition at 10 µM of 56%

CC(C)Cc1ccc([C@@H](C)C(=O)N[C@@H](CCCN2CCCCC2)C(=O)O)cc1 [sodium salt] has a reported inhibition at 10 µM of 33%

* * *

readout.label: melting point

`CC(C)Cc1ccc([C@@H](C)C(=O)NCCCCN(C)C)cc1.Cl` has a reported melting point of 95 to 97 °C

`CC(C)Cc1ccc([C@@H](C)C(=O)NCCCN(C)C)cc1.Cl` has a reported melting point of 95 to 98 °C

`CC(C)Cc1ccc([C@@H](C)C(=O)NCCCN2CCN(C)CC2)cc1.Cl.Cl` has a reported melting point of 216 to 220 °C

* * *

Test system: human circulating polymorphonucleates (PMNs), C5a induced chemotaxis
Test: C5a-induced chemotaxis of human PMNs (microchamber assay)
Type: cell-based
Settings: 1 h, compound 10^-5 M (so in the source), C5a 1 ng/mL
Counter-ions that a name gives are not always drawn.
Output: class label from inhibition at 10 µM. Mapping: c1 = under 50%, c2 = from 50% up to 60%, c3 = 60% and over

Past entries and their recorded results:
CC(C)Cc1ccc([C@@H](C)C(=O)NCCCN)cc1 [hydrochloride] = c3
CC(C)Cc1ccc([C@@H](C)C(=O)NCCCCN(C)C)cc1.Cl [HCl] = c2
CC(C)Cc1ccc([C@@H](C)C(=O)NCC(=O)NCCN(C)C)cc1 [hydrochloride] = c3
CC(C)Cc1ccc([C@@H](C)C(=O)N[C@@H]2C[C@H]3CC[C@@H](C2)N3C)cc1 [hydrochloride] = c2
CC(C)Cc1ccc([C@@H](C)C(=O)NCCCN(C)C)cc1.Cl [hydrochloride] = c3

Form: Item = `C[C@@H](C(=O)NCCCN(C)C)c1ccccc1Nc1c(Cl)cccc1Cl` ; Class = ?
c1

Form: Item = `CC(C)c1cccc([C@@H](C)C(=O)NCCCN(C)C)c1` ; Class = ?
c1

Form: Item = CC(C)Cc1ccc([C@@H](C)C(=O)NC2CCN(C)CC2)cc1 [hydrochloride] ; Class = ?
c1

* * *

readout.label: melting point

Consider the following illustrative entries.
CC(C)Cc1ccc([C@@H](C)C(=O)NCCCN2CCCCC2)cc1.Cl = 76 to 80 °C
CC(C)Cc1ccc([C@@H](C)C(=O)NCCCN2CCOCC2)cc1.Cl = 90 to 93 °C

`CC(C)Cc1ccc([C@@H](C)C(=O)NCCN(C)C)cc1.Cl` has a reported melting point of 90 to 93 °C

Where do these numbers come from? They come from patent US9493402B2.
